Recorded values, source patent US20240360165A1.

Target: CDK2/Cyclin E1 complex (Homo sapiens, UniProt P24941)
Assay: CDK2 inhibition assay (Caliper/LabChip EZ Reader kinase assay)
Type: biochemical
Settings: Table 1; CDK2/Cyclin E1 0.5 nM, ATP 2 mM, 35 min at 27° C.
recorded_metric: IC50

{"molecule": "CC(C)N1CCC[C@H](Nc2ncc(Cl)c(-c3c[nH]c4ccccc34)n2)C1", "experimental_system": "CDK2/Cyclin E1 complex (Homo sapiens, UniProt P24941)", "val": "> 5 µM"}
{"molecule": "FC(F)(F)c1cnc(NC2CNCc3ccccc32)nc1-c1c[nH]c2ccccc12 (stereo not shown) [Compound 216]", "experimental_system": "CDK2/Cyclin E1 complex (Homo sapiens, UniProt P24941)", "val": "0.2 to 5 µM"}
{"molecule": "Cc1noc(C)c1-c1ccc2c(-c3nc(N[C@H]4CCCNC4)ncc3C(F)(F)F)c[nH]c2c1", "experimental_system": "CDK2/Cyclin E1 complex (Homo sapiens, UniProt P24941)", "val": "0.2 to 5 µM"}
{"molecule": "C[C@H]1CNC[C@@H](Nc2ncc(Cl)c(-c3c[nH]c4ccccc34)n2)C1", "experimental_system": "CDK2/Cyclin E1 complex (Homo sapiens, UniProt P24941)", "val": "0.2 to 5 µM"}

###

Biological target: CDK2/Cyclin E1 complex (Homo sapiens, UniProt P24941)
Experiment: CDK2 inhibition assay (Caliper/LabChip EZ Reader kinase assay)
Assay type: biochemical
Details: Table 1; CDK2/Cyclin E1 0.5 nM, ATP 2 mM, 35 min at 27° C.
pIC50: −log10 of the molar value.
recorded_metric: pIC50

{"compound": "CCOP(=O)(OCC)c1cccc2c(-c3nc(N[C@H]4CCCNC4)ncc3C(F)(F)F)c[nH]c12 [Compound 168]", "val": "< 5.30"}
{"compound": "FC(F)(F)c1cnc(N[C@H]2CCCNC2)nc1-c1c[nH]c2cc(-c3ccncc3)ccc12 [Compound 224]", "val": "5.30 to 6.70"}
{"compound": "CC(=O)c1ccc2c(-c3nc(N[C@H]4CCCNC4)ncc3C(F)(F)F)c[nH]c2c1 [Compound 359]", "val": "5.30 to 6.70"}
{"compound": "CN(C)S(=O)(=O)c1cccc2c(-c3nc(NC4CCCNC4)ncc3C(F)(F)F)c[nH]c12 (stereo not shown) [Compound 371]", "val": "5.30 to 6.70"}
{"compound": "CC1(O)CCN(C(=O)c2ccc3c(-c4nc(N[C@H]5CCCNC5)ncc4C(F)(F)F)c[nH]c3c2)CC1 [Compound 282]", "val": "5.30 to 6.70"}
{"compound": "CC1CCNCC1Nc1ncc(C(F)(F)F)c(-c2c[nH]c3ccccc23)n1 (single isomer, unassigned) [Compound 372]", "val": "5.30 to 6.70"}
{"compound": "O=C1CC[C@H](Nc2ncc(Cl)c(-c3c[nH]c4ccccc34)n2)CN1 [Compound 159]", "val": "6.70 to 7.70"}
{"compound": "Cc1c(-c2ccc3c(-c4nc(N[C@H]5CCCNC5)ncc4C(F)(F)F)c[nH]c3c2)cnn1C [Compound 227]", "val": "5.30 to 6.70"}
{"compound": "CCc1cnc(N[C@H]2CCCNC2)nc1-c1c[nH]c2c(S(C)(=O)=O)c(C#N)ccc12 [Compound 263]", "val": "< 5.30"}
{"compound": "CS(=O)(=O)Cc1ccc2c(-c3nc(N[C@H]4CCCNC4)ncc3C(F)(F)F)c[nH]c2c1 [Compound 219]", "val": "5.30 to 6.70"}
{"compound": "CCc1cnc(N[C@H]2CCCNC2)nc1-c1c[nH]c2c(S(=O)O)cccc12 [Compound 363]", "val": "< 5.30"}
{"compound": "N#Cc1ccc2c(-c3nc(N[C@H]4CCCNC4)ncc3C(F)(F)F)c[nH]c2c1C#N [Compound 258]", "val": "5.30 to 6.70"}
{"compound": "CS(=O)(=O)c1ccc2c(-c3nc(N[C@H]4CCCN(C5CC5)C4)ncc3C(F)(F)F)c[nH]c2c1 [Compound 381]", "val": "< 5.30"}
{"compound": "FC(F)(F)c1cnc(NC2CNCc3ccccc32)nc1-c1c[nH]c2ccccc12 (stereo not shown) [Compound 215]", "val": "< 5.30"}
{"compound": "OCc1cccc(-c2ccc3c(-c4nc(N[C@H]5CCCNC5)ncc4C(F)(F)F)c[nH]c3c2)n1 [Compound 316]", "val": "5.30 to 6.70"}
{"compound": "FC(F)(F)c1cnc(N[C@H]2CCCNC2)nc1-c1n[nH]c2ccccc12 [Compound 103]", "val": "5.30 to 6.70"}

###

Measured IC50 of individual entries
Target: CDK7/Cyclin H/MAT1 complex (Homo sapiens)
Sequence (P50613 whole entry, species assumed): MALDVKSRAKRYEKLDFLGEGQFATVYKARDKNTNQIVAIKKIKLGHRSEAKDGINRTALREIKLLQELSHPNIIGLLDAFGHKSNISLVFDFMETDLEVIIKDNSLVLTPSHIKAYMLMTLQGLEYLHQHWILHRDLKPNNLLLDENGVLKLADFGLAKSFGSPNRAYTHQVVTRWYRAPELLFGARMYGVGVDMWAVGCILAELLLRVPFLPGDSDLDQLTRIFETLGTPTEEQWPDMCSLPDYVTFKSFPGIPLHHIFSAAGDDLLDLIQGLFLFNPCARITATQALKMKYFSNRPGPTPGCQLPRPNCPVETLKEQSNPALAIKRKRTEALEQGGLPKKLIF
Sequence (P51946 whole entry partner, species assumed): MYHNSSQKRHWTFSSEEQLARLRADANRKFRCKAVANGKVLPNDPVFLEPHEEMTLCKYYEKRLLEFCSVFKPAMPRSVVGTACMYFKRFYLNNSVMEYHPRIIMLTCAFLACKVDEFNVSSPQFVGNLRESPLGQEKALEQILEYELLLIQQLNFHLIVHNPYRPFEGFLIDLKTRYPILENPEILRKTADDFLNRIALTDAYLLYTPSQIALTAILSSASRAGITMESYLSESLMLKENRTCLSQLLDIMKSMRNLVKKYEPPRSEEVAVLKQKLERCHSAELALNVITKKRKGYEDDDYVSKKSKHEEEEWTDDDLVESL
Sequence (P51948 whole entry partner, species assumed): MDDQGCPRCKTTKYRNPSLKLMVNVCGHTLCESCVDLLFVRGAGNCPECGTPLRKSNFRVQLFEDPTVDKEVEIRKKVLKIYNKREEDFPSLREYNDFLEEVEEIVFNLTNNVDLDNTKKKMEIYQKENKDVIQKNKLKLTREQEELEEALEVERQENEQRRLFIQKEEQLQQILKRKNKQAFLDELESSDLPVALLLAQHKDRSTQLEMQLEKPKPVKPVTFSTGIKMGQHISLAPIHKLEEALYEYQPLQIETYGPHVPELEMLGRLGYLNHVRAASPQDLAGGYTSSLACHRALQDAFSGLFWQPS
Experiment: CDK7 inhibition assay (Caliper/LabChip EZ Reader kinase assay)
Assay type: biochemical
Details: Table 1; CDK7/Cyclin H/MAT1 6 nM, ATP 2 mM, 35 min at 27° C.

{"molecule": "CC(=O)c1ccc2c(-c3nc(N[C@H]4CCCNC4)ncc3C(F)(F)F)c[nH]c2c1", "IC50": "< 20 nM"}
{"molecule": "N#Cc1ccc2c(-c3nc(N[C@@H]4CNC[C@@H](F)C4)ncc3C(F)(F)F)c[nH]c2c1", "IC50": "20 to 200 nM"}
{"molecule": "FC(F)(F)c1cnc(N[C@H]2CCCNC2)nc1-c1c[nH]c2cc(-c3ccc4ncsc4c3)ccc12", "IC50": "20 to 200 nM"}
{"molecule": "FC1(F)CNC[C@@H](Nc2ncc(C(F)(F)F)c(-c3c[nH]c4ccccc34)n2)C1", "IC50": "< 20 nM"}
{"molecule": "CCCc1cnc(N[C@H]2CCCNC2)nc1-c1c[nH]c2c(S(C)(=O)=O)c(C#N)ccc12", "IC50": "20 to 200 nM"}
{"molecule": "O=C1CCc2ccc(-c3ccc4c(-c5nc(N[C@H]6CCCNC6)ncc5C(F)(F)F)c[nH]c4c3)cc2N1", "IC50": "20 to 200 nM"}
{"molecule": "O=C(c1ccc2c(-c3nc(N[C@H]4CCCNC4)ncc3C(F)(F)F)c[nH]c2c1)N1C[C@@H](O)C(F)(F)C1", "IC50": "< 20 nM"}
{"molecule": "NC(=O)c1cccc(-c2ccc3c(-c4nc(N[C@H]5CCCNC5)ncc4C(F)(F)F)c[nH]c3c2)c1", "IC50": "< 20 nM"}
{"molecule": "CCN1CCC[C@H](Nc2ncc(C(F)(F)F)c(-c3c[nH]c4cc(C#N)ccc34)n2)C1", "IC50": "< 20 nM"}
{"molecule": "CCc1cnc(N[C@H]2CCCNC2)nc1-c1c[nH]c2cc(C#N)ccc12", "IC50": "< 20 nM"}
{"molecule": "CC(=O)NCc1cccc(-c2ccc3c(-c4nc(N[C@H]5CCCNC5)ncc4C(F)(F)F)c[nH]c3c2)c1", "IC50": "20 to 200 nM"}
{"molecule": "CC1(C)CCNC[C@H]1Nc1ncc(C(F)(F)F)c(-c2c[nH]c3ccccc23)n1 (single isomer, unassigned)", "IC50": "200 to 5000 nM"}
{"molecule": "N#C[C@@H]1CCN(C(=O)c2ccc3c(-c4nc(N[C@H]5CCCNC5)ncc4C(F)(F)F)c[nH]c3c2)C1", "IC50": "< 20 nM"}
{"molecule": "N#Cc1ccc2c(-c3nc(N[C@H]4CCC5(CCC5)NC4)ncc3C(F)(F)F)c[nH]c2c1 (single isomer, unassigned)", "IC50": "20 to 200 nM"}
{"molecule": "CN(C)S(=O)(=O)c1ccc2c(-c3nc(N[C@H]4CCCNC4)ncc3C(F)(F)F)c[nH]c2c1", "IC50": "< 20 nM"}

###

Target: CDK9/Cyclin T1 complex (Homo sapiens, UniProt P50750)
Sequence (P50750 whole entry, species assumed): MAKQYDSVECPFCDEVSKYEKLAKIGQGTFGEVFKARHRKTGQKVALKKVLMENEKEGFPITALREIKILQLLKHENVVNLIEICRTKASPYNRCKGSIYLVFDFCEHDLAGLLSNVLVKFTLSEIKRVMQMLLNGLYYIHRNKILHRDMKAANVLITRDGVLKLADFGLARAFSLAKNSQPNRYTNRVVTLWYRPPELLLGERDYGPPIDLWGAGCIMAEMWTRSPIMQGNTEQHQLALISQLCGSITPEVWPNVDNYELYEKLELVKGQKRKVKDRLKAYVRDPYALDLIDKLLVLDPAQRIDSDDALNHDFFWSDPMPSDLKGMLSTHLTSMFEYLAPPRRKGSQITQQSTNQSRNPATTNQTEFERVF
Sequence (O60563 whole entry partner, species assumed): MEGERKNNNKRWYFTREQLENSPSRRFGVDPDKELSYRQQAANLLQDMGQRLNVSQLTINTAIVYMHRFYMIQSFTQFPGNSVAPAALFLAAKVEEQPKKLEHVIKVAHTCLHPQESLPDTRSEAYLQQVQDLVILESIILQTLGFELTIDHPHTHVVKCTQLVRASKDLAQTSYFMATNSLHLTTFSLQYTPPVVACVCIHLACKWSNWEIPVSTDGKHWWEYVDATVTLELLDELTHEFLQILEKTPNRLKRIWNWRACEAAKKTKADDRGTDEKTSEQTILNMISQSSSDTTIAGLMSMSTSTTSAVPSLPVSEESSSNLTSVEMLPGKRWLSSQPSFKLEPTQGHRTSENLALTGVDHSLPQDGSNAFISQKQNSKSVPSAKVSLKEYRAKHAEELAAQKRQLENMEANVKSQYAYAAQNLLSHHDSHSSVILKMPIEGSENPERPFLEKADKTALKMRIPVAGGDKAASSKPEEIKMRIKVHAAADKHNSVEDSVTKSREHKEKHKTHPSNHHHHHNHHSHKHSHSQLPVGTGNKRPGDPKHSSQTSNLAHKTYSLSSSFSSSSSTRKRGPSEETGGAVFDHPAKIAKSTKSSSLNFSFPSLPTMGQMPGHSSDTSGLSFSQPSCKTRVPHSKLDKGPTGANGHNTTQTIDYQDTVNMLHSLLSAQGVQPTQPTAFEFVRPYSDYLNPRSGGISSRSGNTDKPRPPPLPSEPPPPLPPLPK
Test: CDK9 inhibition assay (Caliper/LabChip EZ Reader kinase assay)
Assay type: biochemical
Conditions: Table 1; CDK9/Cyclin T1 8 nM, ATP 2 mM, 15 min at 27° C.; listed as 139
pIC50: −log10 of the molar value.
recorded_metric: pIC50

{"sample_smiles": "O=c1[nH]cc(-c2ccc3c(-c4nc(N[C@H]5CCCNC5)ncc4C(F)(F)F)c[nH]c3c2)c(=O)[nH]1", "val": "< 5.30"}

###

Reported pIC50 values are given for each entry in this list.
Target: CDK9/Cyclin T1 complex (Homo sapiens)
Assay: CDK9 inhibition assay (Caliper/LabChip EZ Reader kinase assay)
Format: biochemical
Settings: Table 3; comparison with structural analogs
pIC50: −log10 of the molar value.
recorded_metric: pIC50

{"compound": "C[C@]1(N)CC[C@@H](Nc2ncc(C(F)(F)F)c(-c3n[nH]c4ccccc34)n2)CC1 [reference compound]", "val": "5.30 to 6.70"}
{"compound": "FC(F)(F)c1cnc(N[C@H]2CCCNC2)nc1-c1n[nH]c2ccccc12 [drawing 562]", "val": "5.30 to 6.70"}
{"compound": "FC(F)(F)c1cnc(N[C@H]2CCCNC2)nc1-c1c[nH]c2ccccc12", "val": "6.70 to 7.70"}
{"compound": "C[C@]1(N)CC[C@@H](Nc2ncc(C(F)(F)F)c(-c3c[nH]c4ccccc34)n2)CC1 [reference compound]", "val": "< 5.30"}
